experiment: Test for metabolic stability (human liver microsomes); format: in vitro ADME; conditions: pH 7.4; human liver microsomes 1.0 mg/mL, 1 mM NADPH, test compound 5 μM, 37° C.
recordedMetric: half-life at 5 μM

q: // half-life at 5 μM lookup, key: "CN1CCN(Cc2ccc(-c3ccc(C[C@@H](C#N)NC(=O)C4(N)CCOCC4)c(F)c3)cc2)CC1"
a: > 2 h

---

target: DPPI (Homo sapiens, UniProt P53634); experiment: Human DPPI inhibition assay 2; format: biochemical; parameters: purchased UNIZYME Laboratories A/S; settings: substrate Gly-Phe-paranitroanilide 750 μM, pH 4.5, 37° C.
Sequence (P53634 231-394 limits assumed): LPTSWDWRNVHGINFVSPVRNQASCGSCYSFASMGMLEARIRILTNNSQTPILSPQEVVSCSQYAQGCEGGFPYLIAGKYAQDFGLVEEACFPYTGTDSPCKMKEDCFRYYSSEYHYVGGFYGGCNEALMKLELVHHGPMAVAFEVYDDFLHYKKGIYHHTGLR
Sequence (P53634 25-134 limits assumed): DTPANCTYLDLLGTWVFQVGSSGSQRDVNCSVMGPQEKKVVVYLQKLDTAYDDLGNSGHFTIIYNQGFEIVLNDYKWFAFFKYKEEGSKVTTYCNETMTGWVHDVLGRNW
Sequence (P53634 395-463 limits assumed): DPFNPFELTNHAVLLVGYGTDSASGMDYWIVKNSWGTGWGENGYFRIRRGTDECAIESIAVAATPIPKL
recordedMetric: IC50

q: // IC50 lookup, key: "CN1CCN(Cc2ccc(-c3ccc(C[C@@H](C#N)NC(=O)C4(N)CCOCC4)c(F)c3)cc2)CC1"
a: ~6 nM
